# Tested on: LG0703-F948-PDC complex spheroid viability;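 further: spheroids exposed to agents for 7 days; 100% = DMSO vehicle wells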
# measurement.protocol: Anticancer human tumor LG0703-F948-PDC patient-derived lung adenocarcinoma cell line growth inhibition [RAS]
# measurement.conditions: second compound 0.01 µM; first compound 0.1 µM; stronger effect = lower value
experimental.endpoint: viability, T/C

>  <compound>
NC1c2ccccc2OC12CCN(c1cnc3c(N4CCCc5ncccc54)n[nH]c3n1)CC2 (stereo not drawn) + C=CC(=O)N1CCN(c2nc(OCC3CCCN3C)nc3c(F)c(-c4nc(N)cc(C)c4C(F)(F)F)c(Cl)cc23)C(C)C1

>  <result>
35%

$$$$
>  <compound>
CC1(O)CCCC1n1c(=O)c(C(F)F)cc2cnc(NC3CCN(S(C)(=O)=O)CC3)nc21 (stereo not drawn) + C=CC(=O)N1CCN(c2nc(OCC3CCCN3C)nc3c(F)c(-c4nc(N)cc(C)c4C(F)(F)F)c(Cl)cc23)C(C)C1

>  <result>
103%

$$$$
>  <compound>
Nc1ccn(C2OC(CO)C(O)C2(F)F)c(=O)n1 (stereo not drawn) + C=CC(=O)N1CCN(c2nc(OCC3CCCN3C)nc3c(F)c(-c4nc(N)cc(C)c4C(F)(F)F)c(Cl)cc23)C(C)C1

>  <result>
25.1%

$$$$
